Reference for the values: patent US20150118213A1

assayed system: T1, Fluorescein-labeled cyclic gamma-loop derived peptide (disulfide 1-12; also: fluorescein label, site not given here)
T1 construct: also called fluorescent gamma loop peptide
T1 peptide: CKETWTANVGKC
experimental details: peptide microarray, immobilised 15-mer probed with fluorescein-labelled cyclic gamma-loop peptide; fluorescence scale 0-65535
Bridges are numbered along the chain shown (N, C = ends). Where no end group is shown, it is not given here.

# binder, Binding intensity of gamma loop
records = [
    ("SHNQRFVTYLGSKLG (15-mer from the random peptide array; also called Rnd155; Random2) [Rnd_inter_155]", "19500 arbitrary units"),
    ("RIRITDNMFSAGYKP (Thrombin derived 15-mer in which Cysteine residues have been replaced by Serine) [Thr_136_CS]", "25300 arbitrary units"),
    ("SGIESQLWRSRYPHK (Thrombin derived 15-mer in which Cysteine residues have been replaced by Serine) [Thr_032_CS]", "35100 arbitrary units"),
    ("LGNKKFVSGSRFVST (15-mer from the random peptide array; also called Rnd316; Rnd 316) [Rnd_inter_316]", "26600 arbitrary units"),
    ("WCYVAGKPGDFGYCD (15-mer from the thrombin derived peptide array; also called thrombin derived peptide Thr-069) [Thr_069]", "50600 arbitrary units"),
    ("ISMLEKIYIHPRYNW (15-mer from the thrombin derived peptide array) [Thr_111]", "32800 arbitrary units"),
    ("NITRSGIESQLWRSR (Thrombin derived 15-mer in which Cysteine residues have been replaced by Serine) [Thr_031_CS]", "40800 arbitrary units"),
]
